Test system: macrophages
Experiment Description: Macrophage cytotoxicity (MTT assay, 72 h)
Assay type: cell-based, BALB/c mice
Assay Conditions: Mus musculus, IC50 ± SD
pIC50: −log10 of the molar value.
# Lookup of reported pIC50 keyed by entry

Recorded pIC50, per entry:
Compound	Observed Property	Obs Value
CN(C)c1ccc(/C=C/C=N/NC(=O)c2cccc(Cl)c2)cc1	pIC50	< 4.39
CC(C)Cc1ccc(CC(C)/C=N/NC(=O)c2ccccc2O)cc1 (centres unmarked)	pIC50	< 4.23
CN(C)c1ccc(/C=C/C=N/NC(=O)c2cccc(O)c2)cc1	pIC50	< 4.37

Missing value: pIC50, macrophages, entry `O=C(N/N=C/C=C/c1ccccc1)c1ccncc1` . Fill in?
< 4.28

Missing value: pIC50, macrophages, entry CC(C)Cc1ccc(CC(C)/C=N/NC(=O)c2cccc(O)c2)cc1 (centres unmarked) . Fill in?
< 4.23

---

Test system: L. major promastigotes
Experiment Description: Leishmania major promastigote assay (MTT, 72 h)
Format: cell-based
Assay Conditions: Leishmania major, 72 h, IC50 ± SD, MTT
pIC50: −log10 of the molar value.
Observed Property: pIC50

Compound	Test Target	Obs Value
CC(C)c1cccc(C(C)C/C=N/NC(=O)c2ccccc2O)c1 (stereo not drawn)	L. major promastigotes	4.40
CC(C)c1cccc(C(C)C/C=N/NC(=O)c2cccc(Cl)c2)c1 (stereo not drawn)	L. major promastigotes	> 4.52
CN(C)c1ccc(/C=C/C=N/NC(=O)c2cc3ccccc3cc2O)cc1	L. major promastigotes	< 4.44

Tell me the measured pIC50 of CC(C)Cc1ccc(CC(C)/C=N/NC(=O)c2cccc(F)c2)cc1 (stereo not drawn) , please.
< 4.23

Tell me the measured pIC50 of `CN(C)c1ccc(/C=C/C=N/NC(=O)c2ccccc2O)cc1` , please.
< 4.37

Tell me the measured pIC50 of `O=C(N/N=C/C=C/c1ccccc1)c1cccc(O)c1` , please.
< 4.30

Tell me the measured pIC50 of CC(C)Cc1ccc(CC(C)/C=N/NC(=O)c2cccc(O)c2)cc1 (stereo not drawn) , please.
< 4.23

Tell me the measured pIC50 of CC(C)Cc1ccc(CC(C)/C=N/NC(=O)c2ccncc2)cc1 (stereo not drawn) , please.
< 4.21

Tell me the measured pIC50 of CC(C)c1cccc(C(C)C/C=N/NC(=O)c2cccc(O)c2)c1 (stereo not drawn) , please.
< 4.21

Tell me the measured pIC50 of `CN(C)c1ccc(/C=C/C=N/NC(=O)c2cccc(Cl)c2)cc1` , please.
< 4.39

Tell me the measured pIC50 of `O=C(N/N=C/C=C/c1ccccc1)c1cc2ccccc2cc1O` , please.
4.77

Tell me the measured pIC50 of CC(C)c1cccc(C(C)CC=O)c1 (stereo not drawn) [Florhydral^TM, 3-(3-isopropylphenyl)butanal, reference compound] , please.
< 3.98

---

# Lookup of reported melting point keyed by entry

Recorded melting point, per entry:
Compound	melting point
CN(C)c1ccc(/C=C/C=N/NC(=O)c2cccc(Cl)c2)cc1	210 °C
O=C(N/N=C/C=C/c1ccccc1)c1cccc(F)c1	205 to 206 °C
CC(C)Cc1ccc(CC(C)/C=N/NC(=O)c2ccccc2F)cc1 (stereo not drawn)	82 to 83 °C
CC(C)Cc1ccc(CC(C)/C=N/NC(=O)c2cccc(O)c2)cc1 (stereo not drawn)	182 to 183 °C
CC(C)Cc1ccc(CC(C)/C=N/NC(=O)c2ccccc2O)cc1 (stereo not drawn)	160 to 161 °C

Tell me the measured melting point of CC(C)c1cccc(C(C)C/C=N/NC(=O)c2cccc(O)c2)c1 (stereo not drawn) , please.
196 to 197 °C

Tell me the measured melting point of CC(C)Cc1ccc(CC(C)/C=N/NC(=O)c2cccc(Cl)c2)cc1 (stereo not drawn) , please.
88 to 89 °C

Tell me the measured melting point of `CN(C)c1ccc(/C=C/C=N/NC(=O)c2ccccc2F)cc1` , please.
205 to 206 °C

Tell me the measured melting point of `CN(C)c1ccc(/C=C/C=N/NC(=O)c2cccc(O)c2)cc1` , please.
257 to 258 °C
